Where these numbers come from: PubChem BioAssay AID463199

- Tested on: S. cerevisiae Burl-1 ts mutant growth, BacTiter-Glo, 38.5C 24 h
- Experiment description: restored growth of temperature-sensitive Burl-1 yeast – whole organism, S. cerevisiae, Burl-1 ts mutant, luminescence, counter-screen for SUMOylation pathway inhibitor project, dose response (AID 463199)
The source made the active and inactive calls.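 The calls were made as follows: active = AC50, the dose giving half-maximal effect, exceeds a fixed cutoff for a compound that rescues yeast growth under heat; inactive = the rest, inconclusive results apart.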
Lab note: assign the record to one of T = active, F = inactive

Recorded call for COCCCN1C(=O)c2ccc(C(=O)Nc3ccc(OC)cc3OC)cc2C1=O ? F

Another molecule to check: O=C(c1cc(-c2ccc(Cl)cc2)n(-c2ccc(Cl)cc2)n1)N1CCOCC1 F

Another molecule to check: COc1ccc(S(=O)(=O)N2CCN(c3ccc(F)cc3)CC2)cc1C(=O)N1CCOCC1 F

Another molecule to check: COc1ccc(/C=C(\C#N)C(=O)c2cccn2C)cc1 F

Another molecule to check: CN(c1ccccc1)S(=O)(=O)c1ccc(C(=O)NCC2CCCO2)cc1 (configuration not stated) F

Another molecule to check: Cc1cccc(N=C2C(=O)Nc3c(Cl)cccc32)c1 F

Another molecule to check: Cc1cccc(-[n+]2c(-c3cccc(Br)c3)[nH]c3nc4ccccc4nc32)c1 F

Another molecule to check: COc1ccc(NC2CCCN(C(=O)CCc3scnc3C)C2)cc1 (configuration not stated) F

Another molecule to check: COc1ccc(CN(CC(=O)NCC2CCCO2)C(=O)CCC(=O)Nc2cc(C)on2)cc1 (configuration not stated) F

Another molecule to check: NC(=O)NC(=O)CSc1nc(C2CCCCC2)n(-c2ccccc2)n1 F

Another molecule to check: COc1ccccc1N1C(=O)c2ccccc2NC1C(OC)OC (configuration not stated) F

Another molecule to check: CCC(CC)C(=O)N1CCCC(c2nc(-c3cccs3)no2)C1 (configuration not stated) F

Another molecule to check: OC1CN=C2CCCc3c2n(c2ccc(Cl)cc32)C1 (configuration not stated) F

Another molecule to check: CCOC(=O)NC1(Nc2ccc(C)cc2)Oc2ccccc2O1 F

Another molecule to check: O=C(O)C1C2CCC(O2)C1C(=O)NCCC1=CCCCC1 (configuration not stated) T

Another molecule to check: Cc1cc(C)c2nc(-c3cccnc3)cc(C(=O)Nc3ccc(S(=O)(=O)Nc4onc(C)c4C)cc3)c2c1 F

Another molecule to check: COC(=O)Oc1ccc(/C=N/NS(=O)(=O)c2ccccc2)cc1OC F
